Recorded melting point by entry

{"MOLECULE": "O=C1Cc2c([nH]c3ccc(I)cc23)-c2ncccc2N1", "melting point": "> 330 °C"}
{"MOLECULE": "O=C(O)C(=O)NC1CCCCCCC1", "melting point": "115 to 116 °C"}
{"MOLECULE": "CC1CCC2(OC1)OC1CC3C4CCC5CC(=O)CCC5(C)C4CCC3(C)C1C2C (stereo unspecified)", "melting point": "209 to 211 °C"}
{"MOLECULE": "O=C1CN(C(=O)c2ccccc2Cl)c2ccccc2N1", "melting point": "222 to 224 °C"}
{"MOLECULE": "CCCc1ccc(-c2ncccc2S(=O)(=O)Nc2ncc(C)nc2OC)cc1", "melting point": "70 to 72 °C"}
{"MOLECULE": "CC1(C)Oc2ccc(S(=O)(=O)c3ccccc3)cc2[C@@H](N2CCCC2=O)[C@@H]1O (relative stereo)", "melting point": "200 to 201 °C"}

* * *

Recorded melting point by entry

{"COMPOUND": "Cc1ncc(CN2CC=C(CCc3ccccc3)CC2)c(N)n1", "melting point": "152 to 154 °C"}
{"COMPOUND": "Nc1nc(O)cc(NC2CC2)n1", "melting point": "229 °C"}
{"COMPOUND": "CNn1cc(C(=O)O)c(=O)c2cc(F)c(F)c(F)c21", "melting point": "237 to 238 °C"}
{"COMPOUND": "CCCC(Cc1ccc(OCCNC(=O)c2ccc(-c3ccccn3)cc2)cc1)C(=O)O (stereo not given)", "melting point": "81 to 82.5 °C"}
{"COMPOUND": "CCCCn1c(=O)c(C#N)c(N2CCN(C(=O)c3cccs3)CC2)c2cccnc21", "melting point": "143 °C"}
{"COMPOUND": "CCCCCCCCCCCCCCCCCC(=O)c1cc(C(=O)O)ccc1O", "melting point": "170 °C"}
{"COMPOUND": "Cc1cc(OCc2ccccc2)ccc1OCc1ccccc1", "melting point": "42 to 43 °C"}
{"COMPOUND": "c1cnc2ccc(Cn3nnc4ccc(-c5ccc(N6CCOCC6)nc5)nc43)cc2c1", "melting point": "183 to 185 °C"}
{"COMPOUND": "O=C1c2ccccc2C(=O)N1CCCCn1cnc(-c2ccc([N+](=O)[O-])cc2)c1", "melting point": "170 to 172 °C"}
{"COMPOUND": "O=C1c2cccc3cccc(c23)C(=O)N1CCCCCO", "melting point": "96.5 to 97.5 °C"}
{"COMPOUND": "CC(=NOC(=O)Nc1ccccc1)C(C)N(C(=O)CCl)c1c(C)cccc1C (stereo not given)", "melting point": "115 to 117 °C"}
{"COMPOUND": "CSCCc1nc(N2CCc3ccccc3CC2)c(C#N)c(=O)n1CCO", "melting point": "93 to 99 °C"}
{"COMPOUND": "CC1=C(C#N)C(c2cccc([N+](=O)[O-])c2)C(c2nc(CCl)no2)=C(C)N1 (stereo not given)", "melting point": "204 to 206 °C"}
{"COMPOUND": "CCc1nc2c(cnn2CC)c(NC2CCOCC2)c1CNC(=O)c1cc(C)cc(C(=O)NCc2ccc(C)c(Br)c2)c1", "melting point": "117 to 119 °C"}
{"COMPOUND": "CCOC(=O)c1ccc(NCc2cc(Br)ccc2OCc2ccccc2)c(OC)c1", "melting point": "78 °C"}
{"COMPOUND": "O=C(CCCCCC1(C(=O)O)CC1)CCCCCC1(C(=O)O)CC1", "melting point": "122 to 123 °C"}
{"COMPOUND": "Cc1nc(NC(=O)c2cnn3c(C(F)(F)F)cc(-c4ccc(Cl)cc4)nc23)sc1S(=O)(=O)NC(C)(C)CO", "melting point": "274 °C"}
{"COMPOUND": "Cn1c(CON)ncc(O)c1=O", "melting point": "106 °C"}
{"COMPOUND": "CCCCCCCCCC(=O)c1ccc(O)c(C(=O)O)c1", "melting point": "118 to 119 °C"}
{"COMPOUND": "CC/C(=C\\c1cccc(OCc2nc(-c3ccc(C(F)(F)F)cc3)oc2C)c1)Cn1oc(=O)[nH]c1=O", "melting point": "124 to 125 °C"}

Provenance of the data: a melting point compilation (Tetko et al.; mined from patent text by program, amines drawn as free bases though some values may be those of a salt)
